Data provenance: ChEMBL document CHEMBL5223117

# Test system: Staphylococcus epidermidis
# experiment.summary: Antibacterial activity against methicillin resistant Staphylococcus epidermidis 19-1
# Type: functional
Activity calls are given as the source filed them. The rule behind the calls is not given here.
property: MIC

Consider the reported MIC for these molecules:
O=C(Nc1ccc(Cl)c(C(F)(F)F)c1)Nc1cc(F)c(F)c(F)c1F	0.31 µM
COc1ccc(NC(=O)Nc2ccc(Cl)c(C(F)(F)F)c2)cc1	inactive
CNC(=O)c1cc(Oc2ccc(NC(=O)Nc3ccc(Cl)c(C(F)(F)F)c3)cc2)ccn1 [SORAFENIB]	4.3 µM
O=C(Nc1ccc(Cl)c(F)c1)Nc1ccc(Cl)c(C(F)(F)F)c1	1.36 µM
O=C(Nc1ccc(OC(F)(F)F)cc1)Nc1ccc(Cl)c(C(F)(F)F)c1	1.25 µM

Quick check: MIC of O=C(Nc1ccc(Cl)c(C(F)(F)F)c1)Nc1cc(F)c(F)cc1Cl ?
1.3 µM

Record request: MIC value, item CNC(=O)c1cc(Oc2ccc(NC(=O)N3CCN(c4ccc(Cl)c(C(F)(F)F)c4)C3=O)cc2)ccn1
inactive

Which MIC is reported for this molecule? CN(C(=O)Nc1cccc(Cl)c1F)c1ccc(Cl)c(C(F)(F)F)c1
inactive

Any idea what its MIC is? The molecule is O=C(Nc1ccc(Cl)c(C(F)(F)F)c1)Nc1cc(Cl)c(F)cc1F
2.6 µM

Which MIC value is on record for O=C(Nc1ccc(Cl)cc1)Nc1ccc(Cl)c(C(F)(F)F)c1 [CLOFLUCARBAN] ?
0.72 µM

====

# experiment.summary: Cytotoxicity against human HepG2 cells by SRB assay
# Type: toxicity, cell-based
property: IC50 (µM)
Respond with the bare value in µM.

// solved cases for IC50 follow
O=C(Nc1ccc(Cl)cc1)Nc1ccc(Cl)c(C(F)(F)F)c1	7.7
O=C(Nc1ccc(Cl)c(C(F)(F)F)c1)Nc1ccc(Cl)c(C(F)(F)F)c1	7.72
O=C(Nc1ccc(OC(F)(F)F)cc1)Nc1ccc(Cl)c(C(F)(F)F)c1	6.27
O=C(Nc1ccc(OC(F)(F)F)cc1)N1CCN(c2ccc(Cl)c(C(F)(F)F)c2)C1=O	100
O=C(Nc1ccc2c(c1)OC(F)(F)O2)Nc1ccc(Cl)c(C(F)(F)F)c1	5.68

From here, focus on the item given below.
Would you mind telling me what IC50 value was observed for O=C(Nc1ccc(Cl)c(C(F)(F)F)c1)Nc1cc(F)c(F)c(F)c1F ?
7.09

====

# Tested on: Staphylococcus aureus
# experiment.summary: Antibacterial activity against methicillin resistant Staphylococcus aureus ATCC 33591
# Assay type: functional
Consider the cut-off 1 µM. If the recorded MIC is strictly smaller, the label is criterion met; if not, the label is criterion not met.

Reference set, count: 4
O=C(Nc1ccc(Cl)c(C(F)(F)F)c1)Nc1cc(F)c(F)c(F)c1F	criterion met
O=C(Nc1ccc(OC(F)(F)F)cc1)Nc1ccc(Cl)c(C(F)(F)F)c1	criterion not met
O=C(Nc1ccc2c(c1)OC(F)(F)O2)Nc1ccc(Cl)c(C(F)(F)F)c1	criterion met
O=C(Nc1ccc(Cl)cc1)Nc1ccc(Cl)c(C(F)(F)F)c1	criterion met

Now look at this entry.
MIC under 1 µM? Item: O=C(Nc1ccc(Cl)c(C(F)(F)F)c1)Nc1ccc(Cl)c(C(F)(F)F)c1
criterion not met

====

# System: Staphylococcus aureus
# experiment.summary: Antibacterial activity against methicillin resistant Staphylococcus aureus 16-30
# Assay type: functional
Flag rule - MIC less than 0.7 µM flags 1.0; the remaining entries get 0.0.

Solved entries (count: 3):
O=C(Nc1ccc2c(c1)OC(F)(F)O2)Nc1ccc(Cl)c(C(F)(F)F)c1	1.0
O=C(Nc1ccc(Cl)c(C(F)(F)F)c1)Nc1cc(F)c(F)c(F)c1F	1.0
O=C(Nc1ccc(Cl)c(C(F)(F)F)c1)Nc1ccc(Cl)c(C(F)(F)F)c1	0.0

Quick check: does O=C(Nc1ccc(OC(F)(F)F)cc1)Nc1ccc(Cl)c(C(F)(F)F)c1 have MIC under 0.7 µM?
0.0

====

# Tested on: Staphylococcus aureus
# experiment.summary: Antibacterial activity against methicillin sensitive Staphylococcus aureus ATCC 33591
# Format: functional
Active and inactive are the calls of the source. No cut-off for these calls is given here.
property: MIC

Examples with their reported MIC follow.
CNC(=O)c1cc(Oc2ccc(NC(=O)Nc3ccc(Cl)c(C(F)(F)F)c3)cc2)ccn1 [SORAFENIB]	8.61 µM
O=C(Nc1ccc(C(F)(F)F)cc1)Nc1ccc(Cl)c(C(F)(F)F)c1	10.4 µM
O=C(Nc1ccc(Cl)c(C(F)(F)F)c1)Nc1cc(Cl)c(F)cc1F	1.3 µM
O=C(Nc1ccc(Cl)c(C(F)(F)F)c1)Nc1cc(F)c(F)cc1Cl	0.65 µM
O=C(Nc1ccc(Cl)cc1)Nc1ccc(Cl)c(C(F)(F)F)c1 [CLOFLUCARBAN]	0.34 µM
C[C@H]1COc2c(N3CCN(C)CC3)c(F)cc3c(=O)c(C(=O)O)cn1c23 [LEVOFLOXACIN]	0.69 µM

Find the recorded MIC belonging to O=C(Nc1ccc2c(c1)OC(F)(F)O2)Nc1ccc(Cl)c(C(F)(F)F)c1 and report it.
0.63 µM

I would be grateful if you could share the reported MIC for CNC(=O)c1cc(Oc2ccc(NC(=O)N3CCN(c4ccc(Cl)c(C(F)(F)F)c4)C3=O)cc2)ccn1 .
inactive

====

Property: MIC; scope: individual molecules
# Test system: Enterococcus faecalis
# experiment.summary: Antibacterial activity against Vanomycin-resistant Enterococcus faecalis ATCC 51575
# Assay type: functional

Below, each entry is followed by its recorded MIC result.
O=C(Nc1ccc(Cl)c(C(F)(F)F)c1)Nc1cc(Cl)ccc1F	5.45 µM
O=C(Nc1ccc(F)cc1)Nc1ccc(Cl)c(C(F)(F)F)c1	192 µM
CNC(=O)c1cc(Oc2ccc(NC(=O)Nc3ccc(Cl)c(C(F)(F)F)c3)cc2)ccn1	275 µM

Look up MIC for this molecule: O=C(Nc1ccc(Cl)c(C(F)(F)F)c1)Nc1cc(F)c(F)c(F)c1F
5.17 µM

Consider the molecule shown here: O=C(Nc1ccc(Cl)c(C(F)(F)F)c1)Nc1cc(Cl)c(F)cc1F What is its recorded MIC?
10.4 µM

Using the record for O=C(Nc1ccc(Cl)c(C(F)(F)F)c1)Nc1ccc(Cl)c(C(F)(F)F)c1 , report its MIC.
4.79 µM

Would you mind telling me what MIC value was observed for O=C(Nc1ccc(Cl)c(C(F)(F)F)c1)Nc1cc(F)c(F)cc1Cl ?
10.4 µM

Data request, read-out MIC, for O=C(Nc1ccc(Cl)c(F)c1)Nc1ccc(Cl)c(C(F)(F)F)c1
10.9 µM

====

# Tested on: Enterococcus faecalis
# experiment.summary: Antibacterial activity against Vanomycin-resistant Enterococcus faecalis ATCC 51575
# Type: functional
The reader will find reported MIC values listed item by item below.
Quick note: give the figure in µM, leave out the unit.

These solved cases illustrate the format of a correct answer.
O=C(Nc1ccc(Cl)cc1)Nc1ccc(Cl)c(C(F)(F)F)c1	2.86
O=C(Nc1ccc(OC(F)(F)F)cc1)Nc1ccc(Cl)c(C(F)(F)F)c1	2.51
C[C@H]1COc2c(N3CCN(C)CC3)c(F)cc3c(=O)c(C(=O)O)cn1c23	2.77
O=C(Nc1ccc(C(F)(F)F)cc1)Nc1ccc(Cl)c(C(F)(F)F)c1	20.9

What value of MIC has been recorded for this entry: O=C(Nc1ccc2c(c1)OC(F)(F)O2)Nc1ccc(Cl)c(C(F)(F)F)c1
10.1

====

# Test system: Staphylococcus epidermidis
# experiment.summary: Antibacterial activity against methicillin resistant Staphylococcus epidermidis 19-2
# Format: functional
The source made the active and inactive calls. No cut-off for these calls is given here.
property: MIC

Consider the following illustrative entries.
O=C(Nc1ccc2c(c1)OC(F)(F)O2)Nc1ccc(Cl)c(C(F)(F)F)c1	1.27 µM
CNC(=O)c1cc(Oc2ccc(N3CCN(c4ccc(Cl)c(C(F)(F)F)c4)C3=O)cc2)ccn1	inactive
O=C(Nc1ccc(Cl)c(C(F)(F)F)c1)Nc1cc(F)c(F)cc1Cl	0.65 µM
O=C(Nc1ccc(C(F)(F)F)cc1)Nc1ccc(Cl)c(C(F)(F)F)c1	10.4 µM
CN(C(=O)Nc1ccc(Cl)c(C(F)(F)F)c1)c1cccc(Cl)c1F	inactive
O=C(Nc1ccc(OC(F)(F)F)cc1)Nc1ccc(Cl)c(C(F)(F)F)c1	1.25 µM

Name the reported MIC value associated with the compound O=C(Nc1ccc(Cl)c(F)c1)Nc1ccc(Cl)c(C(F)(F)F)c1
1.36 µM

Consider the compound O=C1N(c2ccc(O)cc2)CCN1c1ccc(Cl)c(C(F)(F)F)c1 and give its measured MIC.
inactive

Entry O=C(Nc1ccc(Cl)c(C(F)(F)F)c1)Nc1cc(F)c(F)c(F)c1F : reported MIC = ?
0.65 µM

Value lookup for MIC; key = O=C(Nc1ccc2c(c1)OCO2)Nc1ccc(Cl)c(C(F)(F)F)c1
22.3 µM

Please give the measured MIC for this compound: CNC(=O)c1cc(Oc2ccc(NC(=O)Nc3cc(C(F)(F)F)ccc3OC)cc2)ccn1
inactive

// returns reported MIC for input COc1ccc(NC(=O)Nc2ccc(Cl)c(C(F)(F)F)c2)cc1
inactive

Could you tell me which MIC is on file for O=C(Nc1ccc(Cl)c(C(F)(F)F)c1)Nc1ccc(Cl)c(C(F)(F)F)c1 ?
1.2 µM

Query: MIC; subject: O=C(Nc1ccc(Cl)c(C(F)(F)F)c1)Nc1cc(Cl)c(F)cc1F
1.3 µM

Dear colleague, I am looking for the recorded MIC of the following compound: O=C(Nc1ccc(OC(F)(F)F)cc1)N1CCN(c2ccc(Cl)c(C(F)(F)F)c2)C1=O
inactive

// lookup MIC for CNC(=O)c1cc(Oc2ccc(NC(=O)Nc3cc(C(F)(F)F)ccc3Cl)cc2)ccn1
inactive

Consider the compound CNC(=O)c1cc(Oc2ccc(NC(=O)Nc3ccc(Cl)c(C(F)(F)F)c3)cc2)ccn1 and give its measured MIC.
4.3 µM

Using the record for C[C@H]1COc2c(N3CCN(C)CC3)c(F)cc3c(=O)c(C(=O)O)cn1c23 , report its MIC.
11.1 µM

MIC for O=C(Nc1ccc(OC(F)F)cc1)Nc1ccc(Cl)c(C(F)(F)F)c1 ?
10.5 µM

Query (compound): CN(C(=O)Nc1cccc(Cl)c1F)c1ccc(Cl)c(C(F)(F)F)c1 ; field requested: MIC
inactive

For O=C(Nc1ccc(F)cc1)Nc1ccc(Cl)c(C(F)(F)F)c1 , what is its reported MIC?
6.01 µM

Could you share which MIC value was measured for CNC(=O)c1cc(Oc2ccc(NC(=O)N3CCN(c4ccc(Cl)c(C(F)(F)F)c4)C3=O)cc2)ccn1 ?
inactive

Give the measured MIC of CNC(=O)c1cc(Oc2ccc(NC(=O)Nc3cccc(C(F)(F)F)c3)cc2)ccn1 .
inactive

Which MIC reading was recorded for the compound O=C(Nc1ccc(Cl)cc1)Nc1ccc(Cl)c(C(F)(F)F)c1 ?
0.72 µM

So what does the record say about MIC for O=C(Nc1ccc(Cl)c(C(F)(F)F)c1)Nc1cc(Cl)ccc1F ?
2.72 µM
